Test system: Vero E6 cells
measurement setup: read-out: CC50 (95% CI), Vero E6 cells, SARS-CoV-2 (Alpha) line
value type: CC50 (µM)
Give bare numbers, in µM.

| molecule | target desc | unit | CC50 |
| --- | --- | --- | --- |
| O=S(=O)(O)OCCCCCCCCCCCSCc1c(CSCCCCCCCCCCCOS(=O)(=O)O)c(CSCCCCCCCCCCCOS(=O)(=O)O)c(CSCCCCCCCCCCCOS(=O)(=O)O)c(CSCCCCCCCCCCCOS(=O)(=O)O)c1CSCCCCCCCCCCCOS(=O)(=O)O [B6C11S] | Vero E6 cells | µM | 17.5 |

Now turn to the next molecule.
Q: Supply CC50 value. Item: `O=S(=O)(O)OCCCCCCCCCSCc1c(CSCCCCCCCCCOS(=O)(=O)O)c(CSCCCCCCCCCOS(=O)(=O)O)c(CSCCCCCCCCCOS(=O)(=O)O)c(CSCCCCCCCCCOS(=O)(=O)O)c1CSCCCCCCCCCOS(=O)(=O)O`
Result: 3.9

====

System: MDCK cells
measurement setup: read-out: CC50 (95% CI), MDCK cells
value type: CC50

Q: Supply CC50 value. Item: O=S(=O)(O)OCCCCCCCCCCCSCc1c(CSCCCCCCCCCCCOS(=O)(=O)O)c(CSCCCCCCCCCCCOS(=O)(=O)O)c(CSCCCCCCCCCCCOS(=O)(=O)O)c(CSCCCCCCCCCCCOS(=O)(=O)O)c1CSCCCCCCCCCCCOS(=O)(=O)O [B6C11S]
Result: > 5.4 µM

====

Test system: GFP-KSHV (KSHV)
experiment summary: microbe, parasite or virus in culture
Type: cell-based, Kaposi’s sarcoma-associated herpesvirus (KSHV)
measurement setup: Human gammaherpesvirus 8, HEK-293T, read-out: KSHV EC50 (95% CI)
value type: pEC50
Give bare numbers, as −log10 of the molar value.

| smiles entry | target desc | value type | reported result |
| --- | --- | --- | --- |
| O=S(=O)(O)OCCCCCCCCCSCC(CSCCCCCCCCCOS(=O)(=O)O)(CSCCCCCCCCCOS(=O)(=O)O)CSCCCCCCCCCOS(=O)(=O)O | GFP-KSHV (KSHV) | pEC50 | 4.68 |

Q: Supply pEC50 value. Item: `O=S(=O)(O)OCCCCCCCCCSCc1cc(CSCCCCCCCCCOS(=O)(=O)O)cc(CSCCCCCCCCCOS(=O)(=O)O)c1`
Result: 4.32

====

Tested on: HEK293T cells
experiment summary: HEK293T cell cytotoxicity (Zombie NIR flow cytometry)
measurement setup: read-out: CC50 (95% CI), 293T cells; HEK293T cells; KSHV line
value type: CC50

Q: Supply CC50 value. Item: O=S(=O)(O)OCCCCCCCCCCCSCc1c(CSCCCCCCCCCCCOS(=O)(=O)O)c(CSCCCCCCCCCCCOS(=O)(=O)O)c(CSCCCCCCCCCCCOS(=O)(=O)O)c(CSCCCCCCCCCCCOS(=O)(=O)O)c1CSCCCCCCCCCCCOS(=O)(=O)O [B6C11S]
Result: > 162 µM

====

Tested on: Raji cells
experiment summary: Raji cell cytotoxicity (Zombie NIR flow cytometry)
measurement setup: read-out: CC50 (95% CI), Raji cells; EBV line
value type: CC50

Q: Enter recorded CC50 with Raji cells for O=S(=O)(O)OCCCCCCCCCCCSCc1c(CSCCCCCCCCCCCOS(=O)(=O)O)c(CSCCCCCCCCCCCOS(=O)(=O)O)c(CSCCCCCCCCCCCOS(=O)(=O)O)c(CSCCCCCCCCCCCOS(=O)(=O)O)c1CSCCCCCCCCCCCOS(=O)(=O)O [B6C11S] here.
Result: > 162 µM
